# Target Or Test System: Adrenergic receptor alpha
# Assay: In vitro postsynaptic antagonist activity against Alpha adrenergic receptor in rat anococcygeus muscle
# Format: functional, tissue-based
Experimental Readout: pA2

> print(dat)
               smiles.structure      target.or.test.system  reported
1     c1ccc2c(NC3=NCCN3)nncc2c1  Adrenergic receptor alpha       4.8
2         N=C(N)Nc1nncc2ccccc12  Adrenergic receptor alpha       4.9
3  CCCC/N=C(/N)Nc1nc2ccccc2nc1C  Adrenergic receptor alpha     < 5.5

Hi! What's the reported pA2 for "CCCC/N=C(\N)Nc1nncc2ccccc12" on Adrenergic receptor alpha? 5.2

====

# Test system: Rattus norvegicus
# Assay: Percent change of heart rate in conscious DOCA Hypertensive rat at 3 hour after administration of dose of 10 mL (mg/kg po)
# Type: functional
Experimental Readout: Change (%)
Numbers only, in %.

See these solved cases before continuing.
> print(dat)
                                   molecule  reported
1  Cc1ccc(N(CC2=NCCN2)c2cccc(O)c2)cc1 [PHENTOLAMINE]        18
2            NNc1nncc2ccccc12 [HYDRALAZINE]         2

Give me Change for each of these molecules, listed below.
1. Nc1nnc2c3ccccc3cnn12
2. CCCC/N=C(\N)Nc1nncc2ccccc12

6
21

For every record below, what is its Change?
1. CCCC/N=C(/N)Nc1nc2ccccc2nc1C
2. N=C(N)Nc1nncc2ccccc12
3. CNc1nnc2c3ccccc3cnn12

-5
7
-25
